Test system: HCT-15 colon
Assay: NCI-60 one-dose screen, 48 h (100 = growth as untreated, 0 = no growth, -100 = all killed)
Conditions: 10 µM unless noted
This is part of a sample that, as a whole, favours compounds with a hit. Of some 83,000 tested, about 20% had one in any assay.
This section presents compounds with their documented growth values.
The figure you give is taken to be in %; do not add the unit.

Can you share its growth? I mean this compound: O=c1[nH]c2c3ccncc3cc(-c3cccc(Cl)c3)c2c2cnccc12
43.3

Can you share its growth? I mean this compound: O=C1NC(c2ccc(Cl)c(Cl)c2)=C/C1=C\c1ccccc1
69

Can you share its growth? I mean this compound: NC(=O)NCC1CCCCC1
94.5

Can you share its growth? I mean this compound: CC(=O)Nc1cc(F)cc(C(F)(F)F)c1Cl
102

Can you share its growth? I mean this compound: COc1ccc2c(c1)c1nc3cc(C)c(C)cc3nc1n2CCN(C)C
-80.3

***
Can you share its growth? I mean this compound: Cc1ccc2c(c1)c(-c1nc(-c3c[nH]c4ncccc34)cs1)cn2C
86.5

Can you share its growth? I mean this compound: COc1cccc(-c2nn(-c3ccccc3)cc2-c2ccnc(NCCNS(=O)(=O)c3ccc(Cl)cc3)c2)c1
24.1

Can you share its growth? I mean this compound: Nc1c(C(=O)Nc2cccc(Cl)c2)sc2ncc(Cl)cc12
80.7

Can you share its growth? I mean this compound: COc1ccccc1-n1cnc(N)c1C(=O)c1cc(OC)c(OC)c(OC)c1
35.5

Can you share its growth? I mean this compound: CCNCCCn1c2c(c3ccc([N+](=O)[O-])cc3c1=O)C(=O)c1cc(OC)cnc1-2
-12

Can you share its growth? I mean this compound: Nc1ccc(Br)cn1
102

Can you share its growth? I mean this compound: Cc1ccc(Cc2cnc(NC(=O)/C=C/c3cccc(C)c3)s2)cc1
7.04

---

Tested on: IGROV1 ovarian
Assay: NCI-60 one-dose screen, 48 h
Conditions: 10 µM unless noted
The panel holds about 83,000 compounds, 20% with a hit somewhere; the sample as a whole holds those more often. Activity calls are given as the source filed them. Rule for the calls: active = growth percent below 10; inactive = the rest.
// one of active, inactive, no free text

Short answer needed: outcome of this test for NS(=O)(=O)c1ccc(CCNC(=O)/C=C/c2ccc(Cl)cc2)cc1 ?
inactive

***
Short answer needed: outcome of this test for N#CC1=C(N)Oc2c(c(N)nn2-c2ccccc2)C1c1ccc(Cl)cc1 (stereo not drawn) ?
inactive

Short answer needed: outcome of this test for CC(C)=CCC[C@](C)(O)[C@H]1CC[C@]2(C)[C@@H]1CC[C@@H]1[C@@]3(C)C/C(=C/c4ccc(Br)cc4)C(=O)C(C)(C)[C@@H]3CC[C@]12C ?
inactive

Short answer needed: outcome of this test for N#CC1=C(N)Oc2ccc3ccccc3c2C1c1ccccc1 (stereo not drawn) ?
inactive

Short answer needed: outcome of this test for COc1cc2ncnc(Nc3ccc(OCc4cccc(F)c4)c(Cl)c3)c2cc1NC(=O)C1CCCC1 ?
inactive

Short answer needed: outcome of this test for CCOC(=O)c1ccc2c(c1)[n+](=O)c(C(=O)C1CCCS1)c(C(F)(F)F)n2[O-] (stereo not drawn) ?
active

Short answer needed: outcome of this test for Cn1cc(-c2csc(-c3cn(CCN)c4ccc(F)cc34)n2)c2cccnc21 ?
inactive

Short answer needed: outcome of this test for COC(=O)[C@]12CC[C@@H](C(/C=C/c3cccnc3)=N/O)[C@@H]1[C@H]1CC[C@@H]3[C@@]4(C)CC(=C/c5cccnc5)/C(=N/O)C(C)(C)[C@@H]4CC[C@@]3(C)[C@]1(C)CC2 ?
inactive

---

System: A498 renal
Test: NCI-60 one-dose screen, 48 h
Conditions: 10 µM unless noted
About 83,000 compounds went through this panel and 20% of them were active in at least one assay; those are over-represented in the sample as a whole. Active and inactive are the calls of the source. The calls were made as follows: active = growth percent below 10; inactive = the rest.
// one of 1.0 = active, 0.0 = inactive, no free text

Worked set:
Short answer needed: outcome of this test for Cc1cc(C)n(Cc2cc(C(C)(C)C)cc(C(C)(C)C)c2)c(=O)c1C#N ?
0.0

Short answer needed: outcome of this test for O=S(=O)(NCCNc1cc(-c2cn(-c3ccccc3)nc2-c2cccc(O)c2)ccn1)c1ccccc1 ?
0.0

Short answer needed: outcome of this test for CC1(C)CC[C@]2(C(=O)NCCNCCN)CC[C@]3(C)C(=CC[C@@H]4[C@@]5(C)CCC(=O)C(C)(C)[C@@H]5CC[C@]43C)[C@@H]2C1 ?
0.0

Short answer needed: outcome of this test for CC(C)/C=C/CC[C@](C)(O)[C@H]1CC[C@]2(C)[C@@H]1CC[C@@H]1[C@@]3(C)C/C(=C/c4cccc(C(F)(F)F)c4)C(=O)C(C)(C)[C@@H]3CC[C@]12C ?
0.0

Short answer needed: outcome of this test for Clc1ccc2[nH]cc(-c3nc(-c4c[nH]c5ncccc45)cs3)c2c1 ?
0.0

Short answer needed: outcome of this test for COc1ccc(-c2n/c(=C\c3c(O)[nH]c4ccc(OC)cc34)cc3c2=Nc2ccccc2-3)cc1 ?
0.0

Short answer needed: outcome of this test for CCOc1ccc(NC(=O)c2ccoc2COc2ccccc2)cc1 ?
0.0

Short answer needed: outcome of this test for COc1ccc(C2CC(=O)c3c(nc4ccc(Cl)cc4c3N)C2)cc1 (stereo not drawn) ?
0.0

Short answer needed: outcome of this test for Cc1ccc2oc(=O)cc(-c3sc(N4CCCCC4)nc3-c3ccccc3)c2c1 ?
0.0

Short answer needed: outcome of this test for O=C(N/N=C\c1ccccc1O)C1CC1 ?
0.0

***
Short answer needed: outcome of this test for C#CCN=C[C@]12CC[C@@H](C(=C)C)[C@@H]1[C@H]1CC[C@@H]3[C@@]4(C)CCC(=O)C(C)(C)[C@@H]4CC[C@@]3(C)[C@]1(C)CC2 ?
0.0

Short answer needed: outcome of this test for Cc1cc2nc3c4cc(N)ccc4n(CCN(C)C)c3nc2cc1C ?
0.0

Short answer needed: outcome of this test for O=C(/C=C/c1ccc2ccccc2c1)Nc1ncc(Cc2ccccc2)s1 ?
0.0

Short answer needed: outcome of this test for OCCNc1nc(Nc2ccc(Cl)c(Cl)c2)nc2ccccc12 ?
0.0

Short answer needed: outcome of this test for CC1(C)NCCC[C@]2(C)[C@H]3CC[C@@H]4[C@H]5[C@H](C(=O)/C=C/c6ccccn6)CC[C@]5(CO)CC[C@@]4(C)[C@]3(C)CC[C@@H]12 ?
0.0

Short answer needed: outcome of this test for CC1=CC(=O)N(c2cccc3c(N4C(=O)C=C(C)C4=O)cccc23)C1=O ?
0.0

Short answer needed: outcome of this test for CC(C)(C)c1[nH]nc2c1C(c1cc3ccccc3[nH]c1=O)Nc1cc(C(=O)OCc3ccccc3)ccc1N2 (stereo not drawn) ?
0.0

Short answer needed: outcome of this test for Nc1ncnc2nc(Br)[nH]c12 ?
0.0

Short answer needed: outcome of this test for Cn1cccc1/C=C1/SC(=S)N(CCc2ccc(O)cc2)C1=O ?
0.0

Short answer needed: outcome of this test for CCN(CC)CCCCCCNc1ccnc2cc(Cl)ccc12 ?
0.0

Short answer needed: outcome of this test for Brc1ccc(Cn2nnnc2-c2ccn(-c3ccccc3)n2)cc1 ?
0.0

Short answer needed: outcome of this test for Nc1nc(N)c2nc3c(nc2n1)CCCCCCCCCC3 ?
0.0

Short answer needed: outcome of this test for Fc1ccc(Nc2nnc(-c3ccc(Cl)cc3)o2)cc1 ?
0.0

Short answer needed: outcome of this test for Nc1c(C(=O)Nc2cccc(Cl)c2)sc2ncc(Cl)cc12 ?
0.0

Short answer needed: outcome of this test for NC1=NN(c2ccccc2)C(=O)/C1=C/c1ccc(Cl)cc1 ?
0.0

Short answer needed: outcome of this test for CCCCCC1CCCCN1C(=O)OCC (stereo not drawn) ?
0.0

Short answer needed: outcome of this test for COc1cc(-c2cc3ncccc3c3nc(N)c4cccnc4c23)cc(OC)c1OC ?
1.0

Short answer needed: outcome of this test for C=C(C)[C@@H]1CC[C@]2(CN)CC[C@]3(C)[C@H](CC[C@@H]4[C@@]5(C)CCC(=O)NC(C)(C)[C@@H]5CC[C@]43C)[C@@H]12 ?
0.0

Short answer needed: outcome of this test for C=C(C)[C@@H]1CC[C@]2(C)[C@H](CC[C@@H]3[C@H]4[C@H]5OC[C@@]4(CCC5(C)C)CC[C@]32C)[C@@]1(C)CCCN ?
0.0

Short answer needed: outcome of this test for Cc1ccc(NC2CC(=O)N(c3c(C)cc(C)cc3C)C2=O)c(C)c1 (stereo not drawn) ?
0.0

Short answer needed: outcome of this test for N#Cc1cnc2cc(OC[C@@H](O)CO)c(NC(=O)CC3CSSC3)cc2c1Nc1ccc(OCc2cccc(F)c2)c(Cl)c1 ?
1.0

Short answer needed: outcome of this test for N#C/C(=C\c1ccc(-c2ccc(Br)cc2)o1)c1nc(-c2cccs2)cs1 ?
0.0

Short answer needed: outcome of this test for O=C1CCC/C=C\C[C@H]2C=C(Cl)C(=O)/C2=C/C[C@H](CCCCC(F)(F)F)OC(=O)CCC/C=C\C[C@H]2C=C(Cl)C(=O)/C2=C/C[C@H](CCCCC(F)(F)F)O1 ?
1.0

Short answer needed: outcome of this test for C#Cc1cccc(NC(=O)C2CCCN(C(=O)CCl)C2)c1 (stereo not drawn) ?
0.0

Short answer needed: outcome of this test for C#CCC(C)(O)/C=C/C1=C(C)CCCC1(C)C (stereo not drawn) ?
0.0
